Target: T1, recombinant human CD55 (R&D Systems 2009-CD/CF) (human, UniProt P08174 35-353)
T1 construct: Bought recombinant protein coated on ELISA plates; also called decay-accelerating factor; DAF
T1 sequence (looked up): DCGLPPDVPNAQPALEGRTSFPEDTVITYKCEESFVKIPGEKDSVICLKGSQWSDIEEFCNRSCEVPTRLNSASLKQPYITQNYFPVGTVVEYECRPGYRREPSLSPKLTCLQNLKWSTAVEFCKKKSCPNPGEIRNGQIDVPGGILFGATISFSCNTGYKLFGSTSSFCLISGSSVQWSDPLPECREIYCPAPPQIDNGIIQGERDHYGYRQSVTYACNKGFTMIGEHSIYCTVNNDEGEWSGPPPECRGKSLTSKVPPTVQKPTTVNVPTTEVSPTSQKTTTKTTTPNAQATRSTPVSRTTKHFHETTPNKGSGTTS
Experiment: indirect ELISA, recombinant human CD55 coated

binder | binding result
10H(A) (antibody, V domains shown) VH: EVQLVESGGGLVQPGGSLRLSCAASGFTFSDRGMAWVRQAPGKGLEWVSGISSSGRYTYYAPAVKGRATISRDNSKNTLYLQMNSLRAEDTAVYYCAKNAAAGGWHAAYIDAWGQGTTVTVSS VL: SYELTQPPSVSVSPGQTASITCSGGGGSYGWYQQKPGQSPVTVIYWNDKRPSGIPERFSGSKSGNTATLTISGTQAMDEADYYCGGWDSSTYAIFGGGTKLTVL | binds
EP-10H (antibody, V domains shown, Tested as full-length IgG; Differs from G4-1H only at the H100A site (G to V); also called EP-10H monoclonal antibody; EP-10H antibody) VH: EVQLVESGGGLVQPGGSLRLSCAASGFTFSDRGMAWVRQAPGKGLEWVSGISSSGRYTYYAPAVKGRATISRDNSKNTLYLQMNSLRAEDTAVYYCAKNAVAGGWHAAYIDAWGQGTTVTVSS VL: SYELTQPPSVSVSPGQTASITCSGGGGSYGWYQQKPGQSPVTVIYWNDKRPSGIPERFSGSKSGNTATLTISGTQAMDEADYYCGGWDSSTYAIFGGGTKLTVL | binds
10H(I) (antibody, V domains shown) VH: EVQLVESGGGLVQPGGSLRLSCAASGFTFSDRGMAWVRQAPGKGLEWVSGISSSGRYTYYAPAVKGRATISRDNSKNTLYLQMNSLRAEDTAVYYCAKNAIAGGWHAAYIDAWGQGTTVTVSS VL: SYELTQPPSVSVSPGQTASITCSGGGGSYGWYQQKPGQSPVTVIYWNDKRPSGIPERFSGSKSGNTATLTISGTQAMDEADYYCGGWDSSTYAIFGGGTKLTVL | binds
